System: HCT-116
METRIC: GI50 (nM)
Give the value in nM but do not write nM after it.

The molecule listed as COc1cnc2c(c1)C(=O)c1c-2n(CCCN2CCNCC2)c(=O)c2cc(F)ccc12 [Compound 17e] has a reported GI50 of 91

---

// endpoint GI50 / system HCT-116
Give the value in nM but do not write nM after it.

Example entries begin here.
[[record]]
compound = "COc1cnc2c(c1)C(=O)c1c-2n(CCCNC(C)C)c(=O)c2cc(Cl)ccc12 [Compound 16f]"
metric = "GI50"
result_number = 138

[[record]]
compound = "CCNCCCn1c2c(c3ccc(Cl)cc3c1=O)C(=O)c1cc(OC)cnc1-2 [Compound 16h]"
metric = "GI50"
result_number = 203

[[record]]
compound = "COc1cnc2c(c1)C(=O)c1c-2n(CCCN2CCN(C)CC2)c(=O)c2cc(Cl)ccc12 [Compound 16j]"
metric = "GI50"
result_number = 980

[[record]]
compound = "CCNCCCn1c2c(c3ccc(F)cc3c1=O)C(=O)c1cc(OC)cnc1-2 [Compound 17h]"
metric = "GI50"
result_number = 136

[[record]]
compound = "COc1cnc2c(c1)C(=O)c1c-2n(CCCN2CCOCC2)c(=O)c2cc(F)ccc12 [Compound 17a]"
metric = "GI50"
result_number = 115


# GI50 measured on HCT-116 for item COc1cnc2c(c1)C(=O)c1c-2n(CCCN2CCOCC2)c(=O)c2cc(Cl)ccc12 [Compound 16a] = 160

# GI50 measured on HCT-116 for item COc1cnc2c(c1)C(=O)c1c-2n(CCCNC2=NCCS2)c(=O)c2cc(Cl)ccc12 [Compound 16c] = 350

# GI50 measured on HCT-116 for item COc1cnc2c(c1)C(=O)c1c-2n(CCCN2CCC(O)CC2)c(=O)c2cc(Cl)ccc12 [Compound 16d] = 98

Reference source: patent US10875860B2
